// data source = patent US20160324863A1

System: UM-UC3 bladder cancer cell line
Method Description: CellTiter-Glo viability assay, UM-UC3
Assay type: cell-based
Experimental Conditions: Homo sapiens, UMUC3, FGFR3 status WT, 72 hours, read-out: Ganetespib IC50
Readout: IC50

In: May I ask what IC50 has been recorded for CC(C)c1cc(-c2n[nH]c(=O)n2-c2ccc3c(ccn3C)c2)c(O)cc1O ?
Out: 33 nM

###

Tested on: 5637 bladder cancer cell line
Method Description: CellTiter-Glo viability assay, 5637
Format: cell-based
Experimental Conditions: FGFR3 status WT, 72 hours, read-out: Ganetespib IC50
Description: Cellular viability was assessed using the CellTiter-Glo Luminescent Cell Viability Assay (Promega) according to manufacturer protocols. Bladder cancer cell lines were seeded into 96-well plates based on optimal growth rates determined empirically for each line. […] CellTiter-Glo was added (50% v/v) to the cells, and the plates incubated for 10 minutes prior to luminescent detection in a SpectraMax Plus 384 microplate reader (Molecular Devices). […]
Readout: pIC50
pIC50 here: minus log base 10 of the concentration, concentration in moles per litre.

In: May I ask what pIC50 has been recorded for CC(C)c1cc(-c2n[nH]c(=O)n2-c2ccc3c(ccn3C)c2)c(O)cc1O ?
Out: 7.36
